- MEASUREMENT_TARGET: PPARγ (Homo sapiens, UniProt P37231)
- Construct: Receptor expression plasmid (GAL4-hPPARα, LBD GAL4-hPPARγ LBD, GAL4-hPPARδ LBD); expressed in transfected cells; host or cells: CV-1 cells
- Sequence (P37231 238-503 limits assumed): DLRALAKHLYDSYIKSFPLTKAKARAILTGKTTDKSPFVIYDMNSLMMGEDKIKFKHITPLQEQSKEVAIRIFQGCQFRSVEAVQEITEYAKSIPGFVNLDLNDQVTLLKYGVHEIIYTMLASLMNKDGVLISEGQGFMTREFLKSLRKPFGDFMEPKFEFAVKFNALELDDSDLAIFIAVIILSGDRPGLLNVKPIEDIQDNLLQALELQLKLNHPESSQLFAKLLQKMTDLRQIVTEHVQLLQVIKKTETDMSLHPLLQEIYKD
- METHOD_NOTES: PPARγ transactivation activity (GAL4-hPPARγ LBD / UASx4-TK-LUC reporter in CV-1 cells)
- Format: cell-based
- MEASUREMENT_CONDITIONS: CV-1; in the manner as described in Example 9; Table 26; read-out: PPARγ (PPAR activating power)
- Procedure: In the same manner, relative ligand activities to PPARδ and γ transactivation activitis are calculated (see the below-mentioned Example 9). (1) Measurement of PPARα,γ,δ Transactivation Activity PPARα,γ,δ transactivation activity of each compound [Examples 1-6 and known PPARδ agonist (L-16504: Berger, J., et al. (1999), J. Biol. Chem., 274:6718-6725)] was measured in the manner described below. CV-1 was obtained from Tohoku University Aging Medical Laboratory, Medical Cell Collection Center. […]
READOUT_NAME: Emax (%)
Report the value in % with no unit label.

CC(C)c1oc(-c2ccc(Cl)cc2Cl)nc1CCC(=O)c1ccc(OC(C)(C)C(=O)O)cc1 :: 2
CC(C)c1oc(-c2ccc(-c3ccccc3)cc2)nc1CCC(=O)c1ccc(OC(C)(C)C(=O)O)cc1 :: 26
CCC(C)(Oc1ccc(C(=O)CCc2nc(-c3ccc(Cl)cc3Cl)oc2C(C)C)cc1)C(=O)O (stereo not shown) :: 2

Now turn to the next compound.
Incoming: Any idea what Emax came out for `CC(C)c1oc(-c2ccc(Cl)cc2Cl)nc1CC=Cc1ccc(OC(C)(C)C(=O)O)cc1` on PPARγ (Homo sapiens, UniProt P37231)?
Outgoing: 1
